Measured values drawn from the supplement of paper PMC10307832 for this set.

Tested on: 201T
Assay: relative viability (nuclei count vs DMSO), 5 days (fraction); higher = more cells survive
Conditions: first compound 0.002 µM
Each item that follows carries a reported relative viability.
Number only, please.

CC(=O)O[C@@]12CO[C@@H]1C[C@H](O)[C@@]1(C)C(=O)[C@H](O)C3=C(C)[C@@H](OC(=O)[C@H](O)[C@@H](NC(=O)OC(C)(C)C)c4ccccc4)C[C@@](O)([C@@H](OC(=O)c4ccccc4)[C@H]21)C3(C)C [Docetaxel] + COc1cc2c(Oc3ccc(NC(=O)C4(C(=O)Nc5ccc(F)cc5)CC4)cc3F)ccnc2cc1OCCCN1CCOCC1 [Foretinib] (partner 0.25 µM)
0.473
CC(=O)O[C@@]12CO[C@@H]1C[C@H](O)[C@@]1(C)C(=O)[C@H](O)C3=C(C)[C@@H](OC(=O)[C@H](O)[C@@H](NC(=O)OC(C)(C)C)c4ccccc4)C[C@@](O)([C@@H](OC(=O)c4ccccc4)[C@H]21)C3(C)C [Docetaxel] + CS(=O)(=O)CCNCc1ccc(-c2ccc3ncnc(Nc4ccc(OCc5cccc(F)c5)c(Cl)c4)c3c2)o1 [Lapatinib] (partner 2 µM)
0.822
CC(=O)O[C@@]12CO[C@@H]1C[C@H](O)[C@@]1(C)C(=O)[C@H](O)C3=C(C)[C@@H](OC(=O)[C@H](O)[C@@H](NC(=O)OC(C)(C)C)c4ccccc4)C[C@@](O)([C@@H](OC(=O)c4ccccc4)[C@H]21)C3(C)C [Docetaxel] + Cc1nc(NC(=O)N2CCC[C@H]2C(N)=O)sc1-c1ccnc(C(C)(C)C(F)(F)F)c1 [Alpelisib] (partner 2 µM)
0.878

Recorded relative viability (compound CC(=O)O[C@@]12CO[C@@H]1C[C@H](O)[C@@]1(C)C(=O)[C@H](O)C3=C(C)[C@@H](OC(=O)[C@H](O)[C@@H](NC(=O)OC(C)(C)C)c4ccccc4)C[C@@](O)([C@@H](OC(=O)c4ccccc4)[C@H]21)C3(C)C [Docetaxel] + O=C(CCCCCCC(=O)Nc1ccccc1)NO [Vorinostat] (partner 1 µM) ): 0.516

Recorded relative viability (compound CC(=O)O[C@@]12CO[C@@H]1C[C@H](O)[C@@]1(C)C(=O)[C@H](O)C3=C(C)[C@@H](OC(=O)[C@H](O)[C@@H](NC(=O)OC(C)(C)C)c4ccccc4)C[C@@](O)([C@@H](OC(=O)c4ccccc4)[C@H]21)C3(C)C [Docetaxel] + COc1cccc2cc(-c3nc([C@H]4CC[C@H](C(=O)O)CC4)n4ncnc(N)c34)[nH]c12 [OSI-027] (partner 0.5 µM) ): 0.258

----------
Test system: HCC-15
Assay: relative viability (nuclei count vs DMSO), 5 days (fraction); higher = more cells survive
Settings: first compound 0.8 µM
value_kind: relative viability
Number only, please.

Field: example entries. Status: answers known.
Cc1cnc(-c2cnc(NCCNc3ccc(C#N)cn3)nc2-c2ccc(Cl)cc2Cl)[nH]1 + Nc1nc2[nH]cc(CCc3ccc(C(=O)N[C@@H](CCC(=O)O)C(=O)O)cc3)c2c(=O)[nH]1 [Pemetrexed] (partner 0.2 µM)
0.216
Cc1cnc(-c2cnc(NCCNc3ccc(C#N)cn3)nc2-c2ccc(Cl)cc2Cl)[nH]1 + CS(=O)(=O)CCNCc1ccc(-c2ccc3ncnc(Nc4ccc(OCc5cccc(F)c5)c(Cl)c4)c3c2)o1 [Lapatinib] (partner 2 µM)
0.903

Recorded relative viability (compound O=c1[nH]c2ccccc2n1C1CCN(CCCC(c2ccc(F)cc2)c2ccc(F)cc2)CC1 [Pimozide] + COc1cccc2cc(-c3nc([C@H]4CC[C@H](C(=O)O)CC4)n4ncnc(N)c34)[nH]c12 [OSI-027] (partner 0.5 µM) ): 0.472

Recorded relative viability (compound O=c1[nH]c2ccccc2n1C1CCN(CCCC(c2ccc(F)cc2)c2ccc(F)cc2)CC1 [Pimozide] + CS(=O)(=O)N1CCN(Cc2cc3nc(-c4cccc5[nH]ncc45)nc(N4CCOCC4)c3s2)CC1 [Pictilisib] (partner 1 µM) ): 0.616

Recorded relative viability (compound Cc1cnc(-c2cnc(NCCNc3ccc(C#N)cn3)nc2-c2ccc(Cl)cc2Cl)[nH]1 + C[C@]1(O)C[C@@H](c2nc(-c3ccc4ccc(-c5ccccc5)nc4c3)c3c(N)nccn32)C1 [Linsitinib] (partner 1 µM) ): 0.8

Recorded relative viability (compound Cc1cnc(-c2cnc(NCCNc3ccc(C#N)cn3)nc2-c2ccc(Cl)cc2Cl)[nH]1 + COc1cccc2cc(-c3nc([C@H]4CC[C@H](C(=O)O)CC4)n4ncnc(N)c34)[nH]c12 [OSI-027] (partner 0.5 µM) ): 0.512

Recorded relative viability (compound O=c1[nH]c2ccccc2n1C1CCN(CCCC(c2ccc(F)cc2)c2ccc(F)cc2)CC1 [Pimozide] + Nc1ncn([C@H]2C[C@H](O)[C@@H](CO)O2)c(=O)n1 [Decitabine] (partner 2 µM) ): 0.452

Recorded relative viability (compound Cc1cnc(-c2cnc(NCCNc3ccc(C#N)cn3)nc2-c2ccc(Cl)cc2Cl)[nH]1 + O=C(c1cc(Cc2n[nH]c(=O)c3ccccc23)ccc1F)N1CCN(C(=O)C2CC2)CC1 [Olaparib] (partner 8 µM) ): 0.721

Recorded relative viability (compound O=c1[nH]c2ccccc2n1C1CCN(CCCC(c2ccc(F)cc2)c2ccc(F)cc2)CC1 [Pimozide] + C[C@]1(O)C[C@@H](c2nc(-c3ccc4ccc(-c5ccccc5)nc4c3)c3c(N)nccn32)C1 [Linsitinib] (partner 1 µM) ): 0.847

----------
Tested on: 201T
Assay: relative viability (nuclei count vs DMSO), 5 days (fraction); higher = more cells survive
Conditions: first compound 0.8 µM
value_kind: relative viability
Number only, please.

O=c1[nH]c2ccccc2n1C1CCN(CCCC(c2ccc(F)cc2)c2ccc(F)cc2)CC1 [Pimozide] + CC1(C)CCC(c2ccc(Cl)cc2)=C(CN2CCN(c3ccc(C(=O)NS(=O)(=O)c4ccc(N[C@H](CCN5CCOCC5)CSc5ccccc5)c(S(=O)(=O)C(F)(F)F)c4)cc3)CC2)C1 [Navitoclax] (partner 0.5 µM)
1.19

Recorded relative viability (molecule Cc1cnc(-c2cnc(NCCNc3ccc(C#N)cn3)nc2-c2ccc(Cl)cc2Cl)[nH]1 + CCNC(=O)c1noc(-c2cc(C(C)C)c(O)cc2O)c1-c1ccc(CN2CCOCC2)cc1 [Luminespib] (partner 0.01 µM) ): 1.06

Recorded relative viability (molecule O=c1[nH]c2ccccc2n1C1CCN(CCCC(c2ccc(F)cc2)c2ccc(F)cc2)CC1 [Pimozide] + O=C(CCCCCCC(=O)Nc1ccccc1)NO [Vorinostat] (partner 1 µM) ): 0.863

Recorded relative viability (molecule O=c1[nH]c2ccccc2n1C1CCN(CCCC(c2ccc(F)cc2)c2ccc(F)cc2)CC1 [Pimozide] + C[C@@H](Oc1cc(-c2cnn(C3CCNCC3)c2)cnc1N)c1c(Cl)ccc(F)c1Cl [Crizotinib] (partner 1 µM) ): 1.03

Recorded relative viability (molecule Cc1cnc(-c2cnc(NCCNc3ccc(C#N)cn3)nc2-c2ccc(Cl)cc2Cl)[nH]1 + CS(=O)(=O)N1CCN(Cc2cc3nc(-c4cccc5[nH]ncc45)nc(N4CCOCC4)c3s2)CC1 [Pictilisib] (partner 1 µM) ): 0.724

Recorded relative viability (molecule O=c1[nH]c2ccccc2n1C1CCN(CCCC(c2ccc(F)cc2)c2ccc(F)cc2)CC1 [Pimozide] + Cc1nc(Nc2ncc(C(=O)Nc3c(C)cccc3Cl)s2)cc(N2CCN(CCO)CC2)n1 [Dasatinib] (partner 0.075 µM) ): 0.564

----------
System: A-427
Assay: relative viability (nuclei count vs DMSO), 5 days (fraction); higher = more cells survive
Conditions: first compound 0.253 µM
// thresholds for relative viability classes: low interval (below 0.7), middle interval (0.7 to below 1), high interval (1 or more)

O=c1[nH]c2ccccc2n1C1CCN(CCCC(c2ccc(F)cc2)c2ccc(F)cc2)CC1 [Pimozide] + Nc1ncn([C@H]2C[C@H](O)[C@@H](CO)O2)c(=O)n1 [Decitabine] (partner 2 µM)
low interval
Cc1cnc(-c2cnc(NCCNc3ccc(C#N)cn3)nc2-c2ccc(Cl)cc2Cl)[nH]1 + CCNC(=O)c1noc(-c2cc(C(C)C)c(O)cc2O)c1-c1ccc(CN2CCOCC2)cc1 [Luminespib] (partner 0.01 µM)
middle interval

The entry to classify is Cc1cnc(-c2cnc(NCCNc3ccc(C#N)cn3)nc2-c2ccc(Cl)cc2Cl)[nH]1 + CC(C)C[C@H](NC(=O)[C@H](Cc1ccccc1)NC(=O)c1cnccn1)B(O)O [Bortezomib] (partner 0.002 µM) ; which class holds it?
high interval

The entry to classify is O=c1[nH]c2ccccc2n1C1CCN(CCCC(c2ccc(F)cc2)c2ccc(F)cc2)CC1 [Pimozide] + Cc1cc(Nc2cc(N3CCN(C)CC3)nc(Sc3ccc(NC(=O)C4CC4)cc3)n2)n[nH]1 [Tozasertib] (partner 0.1 µM) ; which class holds it?
low interval

The entry to classify is O=c1[nH]c2ccccc2n1C1CCN(CCCC(c2ccc(F)cc2)c2ccc(F)cc2)CC1 [Pimozide] + CC(C)C[C@H](NC(=O)[C@H](Cc1ccccc1)NC(=O)c1cnccn1)B(O)O [Bortezomib] (partner 0.002 µM) ; which class holds it?
middle interval

The entry to classify is Cc1cnc(-c2cnc(NCCNc3ccc(C#N)cn3)nc2-c2ccc(Cl)cc2Cl)[nH]1 + CC(=O)c1c(C)c2cnc(Nc3ccc(N4CCNCC4)cn3)nc2n(C2CCCC2)c1=O [Palbociclib] (partner 0.5 µM) ; which class holds it?
low interval

The entry to classify is Cc1cnc(-c2cnc(NCCNc3ccc(C#N)cn3)nc2-c2ccc(Cl)cc2Cl)[nH]1 + CS(=O)(=O)CCNCc1ccc(-c2ccc3ncnc(Nc4ccc(OCc5cccc(F)c5)c(Cl)c4)c3c2)o1 [Lapatinib] (partner 2 µM) ; which class holds it?
middle interval

The entry to classify is O=c1[nH]c2ccccc2n1C1CCN(CCCC(c2ccc(F)cc2)c2ccc(F)cc2)CC1 [Pimozide] + Cc1nc(NC(=O)N2CCC[C@H]2C(N)=O)sc1-c1ccnc(C(C)(C)C(F)(F)F)c1 [Alpelisib] (partner 2 µM) ; which class holds it?
high interval
